Attribution: patent US6905854B2

# assay-name: Kinetic assay of purified DAOCS with penicillin N as main substrate
# Type: biochemical
# condition-label: for penicillin N; 0.5 μg purified DAOCS, 30° C., 10 minutes; triplicate, Hanes-Woolf Plot
recorded-endpoint: Km (µM)
Reply with just the number (in µM).

For YS123: mutated penicillin expandase (DAOCS) with substitution H244Q (protein, UniProt P18548 1-311, looked up, variant H244Q) Deacetoxycephalosporin C …: MDTTVPTFSLAELQQGLHQDEFRRCLRDKGLFYLTDCGLTDTELKSAKDLVIDFFEHGSEAEKRAVTSPVPTMRRGFTGLESESTAQITNTGSYSDYSMCYSMGTADNLFPSGDFERIWTQYFDRQYTASRAVAREVLRATGTEPDGGVEAFLDCEPLLRFRYFPQVPEHRSAEEQPLRMAPHYDLSMVTLIQQTPCANGFVSLQAEVGGAFTDLPYRPDAVLVFCGAIATLVTGGQVKAPRHQVAAPRRDQIAGSSRTSSVFFLRPNADFTFSVPLARECGFDVSLDGETATFQDWIGGNYVNIRRTSKA the molecule record lists Km as 9

For YH2: mutated penicillin expandase (DAOCS) with substitution H244R (protein, UniProt P18548 1-311, looked up, variant H244R) Deacetoxycephalosporin C …: MDTTVPTFSLAELQQGLHQDEFRRCLRDKGLFYLTDCGLTDTELKSAKDLVIDFFEHGSEAEKRAVTSPVPTMRRGFTGLESESTAQITNTGSYSDYSMCYSMGTADNLFPSGDFERIWTQYFDRQYTASRAVAREVLRATGTEPDGGVEAFLDCEPLLRFRYFPQVPEHRSAEEQPLRMAPHYDLSMVTLIQQTPCANGFVSLQAEVGGAFTDLPYRPDAVLVFCGAIATLVTGGQVKAPRHRVAAPRRDQIAGSSRTSSVFFLRPNADFTFSVPLARECGFDVSLDGETATFQDWIGGNYVNIRRTSKA the molecule record lists Km as 8
